Test: protease stability score; higher = more stable; yeast display proteolysis, trypsin and chymotrypsin;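 further: log10 excess protease needed over predicted unfolded state with 0 meaning unfolded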
protease stability score overview
Write the value as a bare number.

Some entries whose results are on file:
{"sequenceContent": "DDEQLKKLAQKFADNMQSGNEEEFDRMAPPEVRVQIGDKTYKGRDKVKEMMKRFRTTADHVRIESFEAHNGQITFNVIIQVNGKSHRIRLRIQARNGQVKQFDLNPDDQRKVEK", "protease stability score": 0.18}
{"sequenceContent": "DEKAMDKVRKVKEIEDEGDSDEFNKMFDPNARFNVGDKSVHGMETYVDQLSKELKRLKRSVRIKSMHAEGNRVDMTVKYEVDVNGRPYRAQVHIIYTFHNGHFSHVTYRLDPQSQREFQK", "protease stability score": 0.017}
{"sequenceContent": "DEEVRHVAEEHFRAFSDNDPDRAKQLADPNARFQYGDREIHGMEDFVKHLETLKRDMRIQIHIKSMDVHNGRVDVTFNLMAHVNGQPFRIEVRATFEAHNGHLVEVQYRFDKKWQKTLES", "protease stability score": 0.861}
{"sequenceContent": "DDRHLQQLASIAAKALRTGNPKDMKKLVDPNAKMHYGDKEVHGREQMADVLRRIRRDADHIDLRSYSADNGRISIDMDLRVNGKKVRIIVKAEVHNGKVTHVTVDTK", "protease stability score": 0.766}

Turning to the following sequence.
What value of protease stability score has been reported for the following sequence? DERQVKEIALEAAKAYISGNKEKLKKLGKEDVELEAGSHKYKGVEQMATVVEQFKKYGVELQITDVKVDGDKVKMRIQVHAGGTTWEFTMEIQVDGGRVDKMTIHLSEEMVKRIQKG
1.02

====

Reported protease stability score values follow for various sequences
Experiment: protease stability score; higher = more stable; yeast display proteolysis, trypsin and chymotrypsin;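 further: log10 excess protease needed over predicted unfolded state with 0 meaning unfolded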

Guide cases for protease stability score, answers given:
{"sequenceContent": "DEEDANDMRHVWEVLDTGDEERFLQMVDPNVKVVIGDKEYHGRENLRKFLQDQKREMSERIKSIRVHDHNGRIKINAHATNQQNGQPHSFNIDAEAELHNGKITHLNVQTDG", "protease stability score": 2.17}
{"sequenceContent": "DEHAKHVVETYMTAQKHNNPKDAQKMVDPNARFSVGDKEVQGSEQLDKEIQRDNKEIREHVESMSVDVDGDKAHVDRTVKFQRNGKPHKLKVHLNFRLTNGRIKTVQVDEDG", "protease stability score": -0.308}
{"sequenceContent": "DEDASRRMIEMVENLQTGNEEEFKKYVDPNVRIEYGDKRVSGRDQATKWWRSEFTEIRFSMRVQSYSVDGNKVDITVRATFDHNGKPEDKKYKLDIQLHNGHIKKLEITDDS", "protease stability score": 1.31}
{"sequenceContent": "DEDDWRKRMKKVVEVLRTGNPDTMVDMVDENAKAKYGDKEYHGREQIHKWMEDRQKRYDHVNVKHMHIQGNKVNISAVYVVNGRSEDRQLQVVFDNGKIKSMRVTEQ", "protease stability score": -0.053}

Given the sequence DEEFVRTVVKAHEENDEKKFNDLMDKDVKVDIGNKELRGRDQARKQLHHLRDKIDHYHVKSVTFKGNRIQIKAEFQVDGRRISAIYQQDVHNGHITSFRVSVTDPRDKHKLDEIVG , what is its reported protease stability score?
0.151

What protease stability score value was documented for this sequence, DEEAQKHLREFFKNQETGDPDKLMEMVDENVHWQVGDKTIEGRDTMKQDFDRRRKELRYHVDIKKVNAHNGRIRARATFHNEHNGKPKSFQAIVVAVITNGRIKSIHVQKRQ ?
-0.037
